Biological target: T1, tCid1 (wild type) (Schizosaccharomyces pombe, UniProt O13833 33-405)
T1 sequence: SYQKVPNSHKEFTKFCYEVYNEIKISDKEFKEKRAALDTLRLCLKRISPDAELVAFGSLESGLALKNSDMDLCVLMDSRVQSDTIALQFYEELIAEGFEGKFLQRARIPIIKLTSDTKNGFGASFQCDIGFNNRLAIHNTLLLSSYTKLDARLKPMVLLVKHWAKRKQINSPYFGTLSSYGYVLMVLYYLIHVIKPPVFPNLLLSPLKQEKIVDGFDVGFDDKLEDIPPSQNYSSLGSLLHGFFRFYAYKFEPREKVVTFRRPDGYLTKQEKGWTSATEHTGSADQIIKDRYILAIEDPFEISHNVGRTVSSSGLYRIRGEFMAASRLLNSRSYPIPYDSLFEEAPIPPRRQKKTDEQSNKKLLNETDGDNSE
Test: SPR
pKd: −log10 of the molar value.
Measurement label: pKd

Note pKd for the binder shown: GAUUUGACGUUGGUUUUGACG (ssRNA) [21 nt SPR RNA]
~7.00

Source of measurements: paper PMC4342108
